Source of measurements: ChEMBL document CHEMBL5385961

# Species on record: Homo sapiens
# Assay overview: Selectivity index, ratio of IC50 for human MCF-10A cells to IC50 for human Hs-578T cells
Endpoint name: Ratio IC50

# Molecule, Measured value
measured = [
    ("COc1cccc(-c2nc3c(c(=O)[nH]2)Cc2cc(Cl)ccc2O3)c1", 0.06),
    ("Brc1ccc2c(c1)-c1cc(-c3ccccc3)nc3c1C(N=CN3c1ccccc1)O2 (stereo not given)", 3.26),
    ("O=c1c(O)c(-c2ccc(O)c(O)c2)oc2cc(O)cc(O)c12", 0.82),
    ("O=c1[nH]c(-c2ccccc2)nc2c1Cc1cc(Br)ccc1O2", "> 12.3"),
    ("COc1cccc2c1Oc1nc(-c3cc(C(C)(C)C)c(O)c(C(C)(C)C)c3)[nH]c(=O)c1C2", "> 5.61"),
]

====

# Assay overview: Cytotoxicity against human MCF-10A cells assessed as inhibition of cell growth incubated for 72 hrs by SRB assay
# Assay type: toxicity, cell-based

# Molecule, Reading unit, Comparator, IC50 at 72 h
data = [
    ("O=c1[nH]c(-c2ccccc2)nc2c1Cc1cc(Br)ccc1O2", "µM", ">", 60),
    ("COc1cccc(-c2nc3c(c(=O)[nH]2)Cc2cc(Cl)ccc2O3)c1", "µM", "=", 14),
    ("O=c1c(O)c(-c2ccc(O)c(O)c2)oc2cc(O)cc(O)c12", "µM", "=", 9.32),
    ("COc1cccc2c1Oc1nc(-c3cc(C(C)(C)C)c(O)c(C(C)(C)C)c3)[nH]c(=O)c1C2", "µM", ">", 60),
    ("Brc1ccc2c(c1)-c1cc(-c3ccccc3)nc3c1C(N=CN3c1ccccc1)O2 (stereo not given)", "µM", "=", 36.8),
]

====

# Tested on: Hs-578T
# Assay overview: Cytotoxicity against human Hs-578T cells assessed as cell viability at 10 uM incubated for 72 hrs by SRB assay relative to control
# Format: functional
# Condition description: read-out: Activity
Endpoint name: viability at 10 µM (%)

# Compound, Endpoint name, Measured value
measured = [
    ("COc1cccc(-c2nc3c(c(=O)[nH]2)Cc2cc(Cl)ccc2O3)c1", "viability at 10 µM", 54.7),
    ("COc1cccc(-c2nc3c(c(=O)[nH]2)Cc2cc(OC)ccc2O3)c1", "viability at 10 µM", 88),
    ("N#CC1=C(/N=C/Nc2ccccc2)Oc2ccc(Br)cc2C1CC(=O)c1ccccc1 (stereo not given)", "viability at 10 µM", 96.1),
    ("COc1ccc(OC)c(-c2nc3c(c(=O)[nH]2)Cc2cc(Cl)ccc2O3)c1", "viability at 10 µM", 91.7),
    ("CCC(CC)C1N=C2Oc3c(cccc3OC)C=C2C(=O)N1 (stereo not given)", "viability at 10 µM", 98.4),
    ("COc1cccc2c1OC1=NC(c3ccc4c(c3)OCO4)NC(=O)C1=C2 (stereo not given)", "viability at 10 µM", 100),
    ("COc1ccc2c(c1)C=C1C(=O)NC(c3c(OC)cc(OC)cc3OC)N=C1O2 (stereo not given)", "viability at 10 µM", 97),
    ("COc1cc(OC)c(C2N=C3Oc4c(cccc4OC)C=C3C(=O)N2)c(OC)c1 (stereo not given)", "viability at 10 µM", 94.8),
    ("COc1cccc2c1Oc1nc(-c3cccc(O)c3)[nH]c(=O)c1C2", "viability at 10 µM", 75.9),
    ("O=c1[nH]c(-c2ccccc2)nc2c1Cc1cc(Br)ccc1O2", "viability at 10 µM", 40.2),
    ("COc1cccc2c1Oc1nc(-c3ccco3)[nH]c(=O)c1C2", "viability at 10 µM", 99.8),
    ("COc1ccccc1-c1nc2c(c(=O)[nH]1)Cc1cccc(OC)c1O2", "viability at 10 µM", 86),
    ("COc1cccc2c1Oc1nc(-c3cccc(Cl)c3)[nH]c(=O)c1C2", "viability at 10 µM", 72),
    ("COc1cccc2c1Oc1nc(-c3ccc(Br)cc3)[nH]c(=O)c1C2", "viability at 10 µM", 97.7),
    ("COc1cccc(-c2nc3c(c(=O)[nH]2)Cc2cccc(OC)c2O3)c1", "viability at 10 µM", 99.3),
    ("CC(C)(C)c1cc(-c2nc3c(c(=O)[nH]2)Cc2ccccc2O3)cc(C(C)(C)C)c1O", "viability at 10 µM", 80.2),
    ("O=c1[nH]c(-c2ccccc2)nc2c1Cc1ccccc1O2", "viability at 10 µM", 76.3),
    ("COc1cccc2c1Oc1nc(-c3cccc(Br)c3)[nH]c(=O)c1C2", "viability at 10 µM", 66.8),
    ("COc1cccc2c1Oc1nc(-c3cc(C(C)(C)C)c(O)c(C(C)(C)C)c3)[nH]c(=O)c1C2", "viability at 10 µM", 30),
    ("COc1ccc(OC)c(-c2nc3c(c(=O)[nH]2)Cc2cccc(OC)c2O3)c1", "viability at 10 µM", 72.7),
    ("COc1cccc2c1Oc1nc(-c3ccccc3)[nH]c(=O)c1C2", "viability at 10 µM", 91.1),
    ("O=c1[nH]c(-c2ccc3c(c2)OCO3)nc2c1Cc1cc(Br)ccc1O2", "viability at 10 µM", 86.1),
    ("COc1ccc2c(c1)Cc1c(nc(-c3cccc(Cl)c3)[nH]c1=O)O2", "viability at 10 µM", 76),
    ("COc1cccc2c1Oc1nc(-c3ccc(C)cc3)[nH]c(=O)c1C2", "viability at 10 µM", 86.8),
    ("COc1cccc2c1C(=O)c1c(O)c3c(c(O)c1C2=O)C[C@@](O)(C(=O)CO)C[C@@H]3O[C@H]1C[C@H](N)[C@H](O)[C@H](C)O1", "viability at 10 µM", 8.65),
    ("COc1ccccc1-c1nc2c(c(=O)[nH]1)Cc1cc(Cl)ccc1O2", "viability at 10 µM", 78.4),
    ("COc1cc(OC)c(C2N=C3Oc4ccc(Br)cc4C=C3C(=O)N2)c(OC)c1 (stereo not given)", "viability at 10 µM", 95.2),
    ("Cc1cccc2c1Oc1nc(-c3ccccc3)[nH]c(=O)c1C2", "viability at 10 µM", 81.3),
    ("COc1cccc2c1Oc1nc(/C=C/c3ccccc3)[nH]c(=O)c1C2", "viability at 10 µM", 99.8),
    ("COc1ccc2c(c1)Cc1c(nc(-c3cc(OC)ccc3OC)[nH]c1=O)O2", "viability at 10 µM", 95.9),
    ("Cc1ccc2c(c1)Cc1c(nc(-c3ccccc3)[nH]c1=O)O2", "viability at 10 µM", 96),
    ("COc1cccc2c1Oc1nc(-c3ccc(F)cc3)[nH]c(=O)c1C2", "viability at 10 µM", 97.5),
    ("COc1ccc2c(c1)Cc1c(nc(-c3ccccc3OC)[nH]c1=O)O2", "viability at 10 µM", 87.5),
    ("Brc1ccc2c(c1)-c1cc(-c3ccccc3)nc3c1C(N=CN3c1ccccc1)O2 (stereo not given)", "viability at 10 µM", 50.4),
    ("COc1cccc2c1Oc1nc(-c3ccccc3Cl)[nH]c(=O)c1C2", "viability at 10 µM", 81.7),
]

====

# Test system: MDA-MB-231
# Assay overview: Cytotoxicity against human MDA-MB-231 cells assessed as cell viability at 30 uM incubated for 72 hrs by SRB assay relative to control
# Type: functional
# Condition description: read-out: Activity

# Molecule, viability at 30 µM / %
data = [
    ("COc1cc(OC)c(C2N=C3Oc4ccc(Br)cc4C=C3C(=O)N2)c(OC)c1 (stereo not given)", 64.4),
    ("COc1cccc(-c2nc3c(c(=O)[nH]2)Cc2cccc(OC)c2O3)c1", 51.6),
    ("COc1cccc2c1Oc1nc(-c3cccc(Br)c3)[nH]c(=O)c1C2", 80.8),
    ("COc1cccc2c1OC1=NC(c3ccc4c(c3)OCO4)NC(=O)C1=C2 (stereo not given)", 62.2),
    ("COc1cccc2c1Oc1nc(-c3cc(C(C)(C)C)c(O)c(C(C)(C)C)c3)[nH]c(=O)c1C2", 58.6),
]

====

Items are presented alongside their recorded viability at 30 µM.
# System: MDA-MB-231
# Assay overview: Cytotoxicity against human MDA-MB-231 cells assessed as cell viability at 30 uM incubated for 72 hrs by SRB assay relative to control
# Assay type: functional
# Condition description: read-out: Activity

# Molecule, viability at 30 µM [%]
records = [
    ("COc1cccc2c1Oc1nc(-c3ccco3)[nH]c(=O)c1C2", 85.8),
    ("COc1ccccc1-c1nc2c(c(=O)[nH]1)Cc1cc(Cl)ccc1O2", 65),
    ("COc1cccc2c1Oc1nc(-c3cccc(Cl)c3)[nH]c(=O)c1C2", 76.9),
    ("COc1ccc(OC)c(-c2nc3c(c(=O)[nH]2)Cc2cccc(OC)c2O3)c1", 88.4),
    ("COc1cccc2c1Oc1nc(-c3ccc(C)cc3)[nH]c(=O)c1C2", 91.1),
    ("CCC(CC)C1N=C2Oc3c(cccc3OC)C=C2C(=O)N1 (stereo unspecified)", 64.1),
    ("COc1cccc2c1Oc1nc(/C=C/c3ccccc3)[nH]c(=O)c1C2", 92.5),
    ("O=c1[nH]c(-c2ccccc2)nc2c1Cc1ccccc1O2", 53.2),
    ("COc1ccc2c(c1)Cc1c(nc(-c3cc(OC)ccc3OC)[nH]c1=O)O2", 49.7),
    ("CC(C)(C)c1cc(-c2nc3c(c(=O)[nH]2)Cc2ccccc2O3)cc(C(C)(C)C)c1O", 95.2),
    ("COc1cccc2c1Oc1nc(-c3ccccc3Cl)[nH]c(=O)c1C2", 90.1),
]
